- study.system: ALK tyrosine kinase receptor (Homo sapiens, UniProt Q9UM73)
- Sequence (Q9UM73 whole entry): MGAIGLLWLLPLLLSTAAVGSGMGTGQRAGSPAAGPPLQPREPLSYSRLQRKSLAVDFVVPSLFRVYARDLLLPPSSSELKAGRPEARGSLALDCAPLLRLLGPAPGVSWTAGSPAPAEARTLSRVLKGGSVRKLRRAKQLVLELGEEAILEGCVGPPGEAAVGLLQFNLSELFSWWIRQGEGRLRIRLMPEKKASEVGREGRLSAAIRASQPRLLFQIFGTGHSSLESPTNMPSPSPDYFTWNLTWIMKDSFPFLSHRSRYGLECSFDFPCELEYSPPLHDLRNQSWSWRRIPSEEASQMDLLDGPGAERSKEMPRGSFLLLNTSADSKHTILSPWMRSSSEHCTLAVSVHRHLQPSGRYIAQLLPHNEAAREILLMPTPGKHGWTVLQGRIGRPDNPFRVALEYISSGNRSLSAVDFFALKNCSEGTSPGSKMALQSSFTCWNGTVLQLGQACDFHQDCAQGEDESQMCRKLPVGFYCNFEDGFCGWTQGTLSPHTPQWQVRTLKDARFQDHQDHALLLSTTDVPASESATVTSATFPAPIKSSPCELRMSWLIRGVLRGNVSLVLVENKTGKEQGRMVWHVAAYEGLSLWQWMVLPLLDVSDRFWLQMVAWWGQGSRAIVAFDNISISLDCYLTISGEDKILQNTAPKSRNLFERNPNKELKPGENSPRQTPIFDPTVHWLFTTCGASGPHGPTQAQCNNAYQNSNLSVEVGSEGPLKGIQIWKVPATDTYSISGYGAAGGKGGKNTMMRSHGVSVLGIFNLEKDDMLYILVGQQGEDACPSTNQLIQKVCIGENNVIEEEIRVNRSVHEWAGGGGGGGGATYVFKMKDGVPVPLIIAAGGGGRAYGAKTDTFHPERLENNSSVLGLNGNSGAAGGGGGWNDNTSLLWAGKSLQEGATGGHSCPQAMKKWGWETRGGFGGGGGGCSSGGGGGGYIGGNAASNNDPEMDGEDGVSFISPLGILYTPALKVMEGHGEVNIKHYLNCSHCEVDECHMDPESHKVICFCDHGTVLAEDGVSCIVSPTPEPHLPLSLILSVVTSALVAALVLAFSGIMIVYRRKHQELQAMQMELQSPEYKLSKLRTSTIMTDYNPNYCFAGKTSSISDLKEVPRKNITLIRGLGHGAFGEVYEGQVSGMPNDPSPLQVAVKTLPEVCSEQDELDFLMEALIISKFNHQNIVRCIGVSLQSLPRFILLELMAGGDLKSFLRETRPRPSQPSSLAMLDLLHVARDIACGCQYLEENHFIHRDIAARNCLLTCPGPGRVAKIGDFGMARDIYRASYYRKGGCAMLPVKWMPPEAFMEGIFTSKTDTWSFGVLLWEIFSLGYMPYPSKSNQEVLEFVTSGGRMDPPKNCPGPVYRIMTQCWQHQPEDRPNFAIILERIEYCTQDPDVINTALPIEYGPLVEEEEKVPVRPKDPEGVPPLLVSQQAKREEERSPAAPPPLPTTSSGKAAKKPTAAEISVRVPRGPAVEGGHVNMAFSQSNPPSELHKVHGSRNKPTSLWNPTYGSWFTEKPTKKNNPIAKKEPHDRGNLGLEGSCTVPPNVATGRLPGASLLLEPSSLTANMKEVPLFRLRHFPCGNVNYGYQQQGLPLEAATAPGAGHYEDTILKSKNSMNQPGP
- method.notes: Inhibition of ALK (unknown origin)
measured.attribute: IC50

Endpoint output: IC50 of COc1cc2c(Oc3ccc(NC(=O)c4cn(-c5ccccc5OC)cn4)cc3F)ccnc2cc1OCCCN1CCN(C)CC1 . Value? > 3.33 µM

====

- method.notes: Cytotoxicity against human MKN45 cells after 72 hrs by MTT assay
- condition.set: MKN-45, 72 h
Could you mark each record met if its IC50 falls strictly under 600 nM, and not met if it equals or exceeds it?

Example entries and their recorded answers appear below.
| structure.as.smiles | class |
| --- | --- |
| COc1cc2c(Oc3ccc(NC(=O)c4cn(-c5cc(C)ccc5C)cn4)cc3F)ccnc2cc1OCCCN1CCCCC1 | not met |
| COc1ccc(S(=O)(=O)/C=C/C(=O)Nc2ccc(Oc3ccnc4cc(OCCCN5CCN(C)CC5)c(OC)cc34)c(F)c2)cc1 | not met |
| COc1ccc(S(=O)(=O)/C=C/C(=O)Nc2ccc(Oc3ccnc4cc(OCCCN5CCCCC5)c(OC)cc34)c(F)c2)cc1 | not met |
| COc1cc2c(Oc3ccc(NC(=O)/C=C/S(=O)(=O)c4ccccc4F)cc3F)ccnc2cc1OCCCN1CCN(C)CC1 | met |

A record lists COc1cc2c(Oc3ccc(NC(=O)c4cn(-c5ccccc5OC)cn4)cc3F)ccnc2cc1OCCCN1CCOCC1 . Is its IC50 below 600 nM? met

A record lists COc1cc2c(Oc3ccc(NC(=O)c4cn(-c5ccc(Cl)cc5)cn4)cc3F)ccnc2cc1OCCCN1CCCCC1 . Is its IC50 below 600 nM? not met

A record lists COc1cc2c(Oc3ccc(NC(=O)c4cn(-c5cc(C)ccc5C)cn4)cc3F)ccnc2cc1OCCCN1CCN(C)CC1 . Is its IC50 below 600 nM? not met

A record lists COc1cc2c(Oc3ccc(NC(=O)/C=C/S(=O)(=O)c4ccccc4F)cc3F)ccnc2cc1OCCCN1CCOCC1 . Is its IC50 below 600 nM? met
